Where these numbers come from: ChEMBL document CHEMBL1201862

# Tested on: 786-0
# protocolDetails: NCI tumour cell line growth inhibition, 48 h
Calls of active or inactive are those of the source. No stated cut-off is given here; in the data, active = GI50 up to about 1.1 µM and inactive = higher.
Assignment: determine reported GI50 for the given compounds.

Input line: // Input: `Cc1ccc(NC(=O)COC(=O)c2cccc3c(=O)c4ccccc4[nH]c23)cc1` . Output its GI50 only.
Output line: 28.4 µM (inactive)

Input line: Give the value of GI50 reported for the following: `CC(=O)CSCc1ccccn1`
Output line: 97.1 µM (inactive)

Input line: Please supply the value of reported GI50 for the item `COc1ccc(NS(=O)(=O)c2ccc3ncn(NS(=O)(=O)c4ccc(I)cc4)c(=O)c3c2)cc1`
Output line: > 100 µM (inactive)

Input line: Specify reported GI50 for the compound shown: `O=C1/C(=C\c2ccc(O)cc2)CCC/C1=C/c1ccc(Cl)c(Cl)c1`
Output line: 2.43 µM (inactive)

Input line: // Input: `O=C(/C=C/c1ccco1)CC(=O)/C=C/c1ccco1` . Output its GI50 only.
Output line: 12.7 µM (inactive)

Input line: Tell us which GI50 value is on record for `CC(=O)C(=[N+]=[N-])C(=O)NCC#N`
Output line: > 10 µM (inactive)

---

# Tested on: LXFL 529
# protocolDetails: NCI tumour cell line growth inhibition, 48 h
Activity calls are given as the source filed them. No stated cut-off is given here; in the data, active = GI50 up to about 1.1 µM and inactive = higher.
Assign GI50 to each entry below.

Input line: Report GI50, nothing else, for this molecule: `CCOC(=O)Cc1ccc2c(c1O)C(=O)c1c(ccc(CC(=O)OCC)c1O)C2=O`
Output line: > 100 µM (inactive)

Input line: Name the recorded GI50 of the item COc1cc2c3c(c1OC)/C(=N/OS(=O)(=O)c1ccc(C)cc1)CC3N(S(=O)(=O)c1ccc(C)cc1)CC2 (stereo not given) in your answer.
Output line: > 100 µM (inactive)

Input line: Specify reported GI50 for the molecule shown: `C=C(CN(C)C)C(=O)c1ccc(OC)cc1`
Output line: 1.69 µM (inactive)

Input line: Return GI50 for the following molecule: CCCCCC(C[N+]1(C)CCOCC1)C(=O)/C=C/c1ccccc1 (stereo not given)
Output line: 3.18 µM (inactive)

Input line: Given C=CCO[C@H]1CC[C@@]2(C)C(CC[C@]3(C)C2CC=C2[C@@H]4[C@@H](C)C(C)CC[C@]4(C(=O)O)CCC23C)C1(C)C (stereo not given in full) , respond with its GI50.
Output line: 12.6 µM (inactive)

---

Give measured GI50 for each item. Keep answers brief.
# System: SK-MEL-2
# protocolDetails: NCI tumour cell line growth inhibition, 48 h
Calls of active or inactive are those of the source. Cut-off read from the data, not from the text of the source: active = GI50 up to about 1.1 µM and inactive = higher. Peptide text beside a SMILES is read from it.

Input line: # return recorded GI50 for entry COc1ccccc1NC(=O)CC(=O)N1N=C(C)C(/N=N/c2ccc(S(N)(=O)=O)cc2)C1=O (configuration not stated)
Output line: > 100 µM (inactive)

Input line: Report GI50, nothing else, for this compound: NC(=O)/C(=N\NC(=O)c1cc2ccccc2cc1O)C1C(=O)N(c2ccccc2)N=C1N (configuration not stated)
Output line: 21.7 µM (inactive)

Input line: Please look at this compound and report its GI50: `C=C(CC)C[C@@H]1C[C@]2(C(=O)OC)c3[nH]c4ccccc4c3CCN2C1=O`
Output line: 17.1 µM (inactive)

Input line: Identify measured GI50 associated with `CO[C@H]1[C@H](O)[C@H](O[C@H]2CC[C@@]3(C)[C@H](CC[C@@H]4[C@@H]3CC[C@]3(C)[C@@H](C5=CC(=O)OC5)CC[C@]43O)C2)O[C@@H](C)[C@@H]1O`
Output line: 0.00117 µM (active)

Input line: Tell me GI50 reported for `CC(=O)CSCc1ccccn1`
Output line: 25.9 µM (inactive)

Input line: Provide GI50 value for the following compound: Cc1ccc(C)c(N2C(=O)C(=O)C(c3nc4ccccc4s3)/C(=N\c3cccc4c(=O)[nH][nH]c(=O)c34)C2=O)c1 (configuration not stated)
Output line: > 100 µM (inactive)

Input line: Determine from records and report GI50 for `O=C=C=P(c1ccccc1)(c1ccccc1)c1ccccc1`
Output line: 49.5 µM (inactive)

Input line: Give reported GI50 value for `COc1ccc2c(c1O)-c1c(OC)c(OC)cc3c1[C@H](C2)[N+](C)(C)CC3`
Output line: > 100 µM (inactive)

Input line: Annotate the compound O=C1Sc2sc(=S)sc2SC1c1ccccc1 (configuration not stated) with its measured GI50.
Output line: > 65 µM (inactive)

Input line: Annotate the compound `C(=N\C12CC3CC(CC(C3)C1)C2)/C1CCCCC1` with its measured GI50.
Output line: > 100 µM (inactive)

Input line: Please supply the value of reported GI50 for the item `COc1cc2c3c(c1OC)C(=O)C(=O)C1=C3N(CCC1)CC2`
Output line: 48.9 µM (inactive)

Input line: Answer with reported GI50 of COc1cc(OC)c2c(c1)C(=O)C(CC(C)O)=CC2=O (configuration not stated)
Output line: 19.7 µM (inactive)

Input line: Please give measured GI50 of the following entry: O=C1OC2C(O)C(=O)OC2C1O (configuration not stated)
Output line: > 100 µM (inactive)

Input line: Return the recorded GI50 value; entry: CCC(C)C(NC(=O)C(NC(=O)C(CC(N)=O)NC(=O)CN)C(C)O)C(=O)NC(C(=O)NC(C)C(=O)NC(C(=O)NC(CCC(=O)O)C(=O)NC(CC(C)C)C(=O)NC(CC(=O)O)C(=O)NC(C(=O)NC(Cc1ccc(O)cc1)C(=O)N1CCCC1C(=O)O)C(C)O)C(C)C)C(C)C (configuration not stated) (H-GNTIVAVELDTYP-OH; configuration not given here)
Output line: > 50 µM (inactive)

Input line: Provide measured GI50 value, entry: `Cc1nc2ccc(F)cc2c2c1CCN2c1ccc(Cl)cc1`
Output line: 18.6 µM (inactive)

Input line: Give recorded GI50. `CC(=O)[O-].[O-]c1c(Cl)cc(Cl)cc1/C=N/Nc1ccccn1.[Zn+2]`
Output line: 0.0601 µM (active)

Input line: Give the reported value of GI50 for this record: `COc1cc([C@@H]2c3cc4c(cc3[C@@H](NC(=O)NO)[C@H]3COC(=O)[C@H]23)OCO4)cc(OC)c1O`
Output line: 4.38 µM (inactive)

---

# System: SF-295
# protocolDetails: NCI tumour cell line growth inhibition, 48 h
Active and inactive are the calls of the source. Rule as the data show it: active = GI50 up to about 1.1 µM and inactive = higher.
Hello, when you answer, please use one of the following outcomes: yes (active), no (inactive)

Input line: What was the test verdict on `CC1=N/C(=C\c2ccc(C)cc2)C(=O)O1` ?
Output line: no

Input line: I'd appreciate the recorded outcome for `CC(=O)c1csc2c1C(=O)c1ccccc1C2=O` from this test.
Output line: no

Input line: Short answer needed: outcome of this test for COc1ccc(OC(=O)CC2Cc3cc(OC)c(OC)c(OC)c3-c3ccc(SC)c(=O)cc32)cc1 (stereo unspecified) ?
Output line: yes

Input line: Short answer needed: outcome of this test for `C(=N\C12CC3CC(CC(C3)C1)C2)/C1CCCCC1` ?
Output line: no

Input line: Short answer needed: outcome of this test for `CC1=CC(=O)/C(=C/NC(N)=S)C(=O)O1` ?
Output line: no

Input line: Any idea what this test logged for `COc1ccc(NS(=O)(=O)c2ccc3ncn(NS(=O)(=O)c4ccc(I)cc4)c(=O)c3c2)cc1` ?
Output line: no

---

# Tested on: PC-3
# protocolDetails: NCI tumour cell line growth inhibition, 48 h
Active and inactive are the calls of the source. Rule as the data show it: active = GI50 up to about 1.1 µM and inactive = higher. Peptide text beside a SMILES is read from it.
Mark one answer only. Choices: 1.0 for active, 0.0 for inactive

Input line: Record lookup: outcome of this test for `O=c1c2cccnc2cc(-c2ccccc2)n1CCO` ?
Output line: 0.0

Input line: So what was the verdict on COc1cc2oc3c(c(=O)c2c(O)c1/C=C/C(C)C)C(C=C(C)C)Oc1cc(O)ccc1-3 (stereo not given) in this test?
Output line: 0.0

Input line: Lab log entry: `COc1cc2c(cc1OC)C1Cc3cc(OC)c(OC)cc3C(C2)N1C` — outcome as called in the assay?
Output line: 0.0

Input line: Please share the test call associated with `CNC1(C(=O)O)CC1` .
Output line: 0.0

Input line: What was the test verdict on `CN(C)c1ccc(NN=C2SC(=N\c3ccccc3)/C(=N/c3ccccc3)S2)cc1` ?
Output line: 0.0

Input line: Hello, I am checking results. What call was entered for `CCOC(=O)Cn1nnc2cc(Nc3nc4ccccc4nc3C(=O)OCC)ccc21` ?
Output line: 0.0

Input line: State the result this test recorded for `C/C1=C\[C@H](C)C[C@H](C)OC(=O)C[C@H](c2ccc(O)cc2)NC(=O)[C@H](Cc2ccc(O)c(I)c2)N(C)C(=O)[C@H](C)NC(=O)[C@@H](C)C1` .
Output line: 1.0

Input line: Please let me know the test result on file for `CN(C)Cc1cc(C(C)(C)C)cc(CN(C)C)c1O` .
Output line: 0.0

Input line: Short answer needed: outcome of this test for `Fc1ccc(N2C(=S)SC(=N\c3ccccc3)/C2=N/c2ccccc2)cc1` ?
Output line: 0.0

Input line: Call for entry O=C1OC2C(O)C(=O)OC2C1O (stereo not given) :
Output line: 0.0

Input line: What was the test verdict on `Brc1ccc2c(c1)C1=C(CO2)Cc2ccccc2O1` ?
Output line: 0.0

Input line: Give the logged outcome of this assay for the following compound: `Cc1cc2c3c([nH]c2c2ccnc(C)c12)CCCC3`
Output line: 0.0

Input line: Per the assay record, what outcome was assigned to C=C(C(=O)OC1C(CO)OC(OCC2CC[C@@H]3C[C@]4(OC(=O)C3=C)C(C)=CC(=O)C24)C(O)C1O)[C@@H]1CCC(CO)C2C(=O)C=C(C)[C@@]2(O)C1 (stereo not given in full) ?
Output line: 0.0

Input line: Recorded call for `COc1ccc(-c2nc(-c3ccc(OC)cc3)n(-c3ccccc3)n2)cc1` ?
Output line: 0.0

Input line: State the result this test recorded for `CCOC(=O)c1cc2c([N+](=O)[O-])c(N)ccc2s1` .
Output line: 0.0

Input line: Query: recorded result category for `Cc1ccnc2sc3ccccc3c(=O)c12` in this test
Output line: 0.0

Input line: Could you kindly confirm the outcome this assay logged for `CNC(=O)Nc1nc2cc([N+](=O)[O-])ccc2[nH]1` ?
Output line: 0.0

Input line: Tell me the assay call for COc1ccc2c(c1)N=C1CSC(c3cccc(Br)c3)N1C2 (stereo not given) please.
Output line: 0.0

Input line: What is the recorded call for this compound in the test? `Cc1c(C(=O)O)n2cnnc2c2ccccc12`
Output line: 0.0

Input line: Kindly provide the recorded test outcome for the following compound: COc1ccc(-c2cc(-c3ccco3)c(C#N)c(=S)n2C2OC(CO)C(O)C(O)C2O)cc1 (stereo not given)
Output line: 0.0

Input line: In this assay, the call recorded for `O/N=C1\C=Cc2nn(-c3ccccc3)nc2\C1=N/O` was what?
Output line: 0.0

Input line: Could you kindly confirm the outcome this assay logged for `Nn1c(CCCCCCCCc2nnc(COc3ccc(Cl)cc3Cl)n2N)nnc1COc1ccc(Cl)cc1Cl` ?
Output line: 0.0

Input line: Check the results log: what was the call for `CCOP(=O)(OCC)c1cc2cc(O)ccc2oc1=O` ?
Output line: 0.0

Input line: State the result this test recorded for `COC(=O)[C@@H]1C[C@@]23CCCN4CC[C@@]5(c6cccc(OC)c6N(C=O)[C@]15CC2)[C@@H]43` .
Output line: 0.0

Input line: Please share the test call associated with CC1=CC(c2ccccc2)OP1(=O)c1ccccc1 (stereo not given) .
Output line: 0.0

Input line: Lab log entry: `Cc1cccc2c(N)c3cccc(C(=O)NCC[N+](C)(C)Cc4c([N+](=O)[O-])ncn4C)c3nc12` — outcome as called in the assay?
Output line: 0.0

Input line: So what was the verdict on COC(=O)CC1C2(C)C3=C(C)C(c4ccoc4)CC3OC2C2OC(=O)C3(C)C=CC(=O)C1(C)C23 (stereo not given) in this test?
Output line: 0.0

Input line: Identify the outcome logged in this assay for the compound shown: CCC(C)C(NC(=O)C(NC(=O)C(CC(N)=O)NC(=O)CN)C(C)O)C(=O)NC(C(=O)NC(C)C(=O)NC(C(=O)NC(CCC(=O)O)C(=O)NC(CC(C)C)C(=O)NC(CC(=O)O)C(=O)NC(C(=O)NC(Cc1ccc(O)cc1)C(=O)N1CCCC1C(=O)O)C(C)O)C(C)C)C(C)C (stereo not given) (H-GNTIVAVELDTYP-OH; configuration not given here)
Output line: 0.0

Input line: Outcome? `Cc1nc(-c2ccccc2)c(C)n2c1nc1ccccc12`
Output line: 0.0

Input line: What outcome does the record of this test show for `C=C(C)c1nc(Oc2ccccc2)nc(Oc2ccccc2)n1` ?
Output line: 0.0

Input line: Answer briefly: the call reported for `CC(=O)/C=C1\Nc2ccc([N+](=O)[O-])cc2N\C1=C/C(C)=O` in this assay.
Output line: 0.0

Input line: How was `C[n+]1c2ccccc2c(N=[N+]=[N-])c2ccccc21` classified in this test?
Output line: 0.0

Input line: Write down the call the test reported for this compound. Item: `COc1cc2c[n+](C)c3c4ccccc4ccc3c2cc1OC`
Output line: 0.0

Input line: In this assay, the call recorded for `C=C(CO)[C@H]1Oc2ccc(C(C)=O)cc2[C@@H]1O` was what?
Output line: 0.0

Input line: Per the records of this test, what outcome belongs to `O=C(O)Cc1ccc(Nc2nc3cc(C(F)(F)F)ccc3nc2C(=O)O)cc1` ?
Output line: 0.0

Input line: Hi team, can someone confirm the assay call for `COc1ccc(C2=CN3CCC[C@H]3C=C2c2cc(O)c(OC)c(OC)c2)cc1OC` ?
Output line: 1.0

Input line: Could you please tell me the result logged for COc1ccc(C2OC2C(=O)C23CC4CC(CC(C4)C2)C3)cc1 (stereo not given) in this assay?
Output line: 0.0

Input line: I'd appreciate the recorded outcome for `CC(C)(C)OC(=O)N1C(C2=COc3ccccc3O2)=COc2ccccc21` from this test.
Output line: 0.0

Input line: In this assay, the call recorded for N#Cc1c(N)n(C2OC(CO)C(O)C2O)c2ncnc(N)c12 (stereo not given) was what?
Output line: 1.0

Input line: For `O=C1/C(=C\c2ccc(O)cc2)CCC/C1=C/c1ccc(Cl)c(Cl)c1` , what call appears in the results of this test?
Output line: 0.0
